- Substrate: CC1=C(CCC(=O)O)c2cc3nc(cc4[nH]c(cc5[nH]c(cc1n2)c(C)c5CCC(=O)O)c(CCC(=O)O)c4C)C(CCC(=O)O)=C3C
- experiment: purified protein
- Assay type: biochemical, Corynebacterium glutamicum
- applied conditions: ferrous ammonium sulfate 100 uM, Tris-HCl pH 8.0, 3.3% Tween 20, 5 mM glutathione, 30 °C
kcat/Km overview
State the result as a value with its unit after it.

Before answering, review these 2 worked examples.
protein	kcat/Km
CpfC (coproporphyrin ferrochelatase) (Corynebacterium glutamicum ATCC 13032; T194S) (protein, heterologously expressed in E. coli BL21, purified) MNERTSDAFDALLVLSFGGPEGHEEVRPFLENVTHGRGIPPERLDEVAVHYHHFGGISPINALNREIIANVEKELASRDHKLPVYFGNRNWKPFDNEAAEQMADDGVKNALVLATSAWGGYSGCRQYQEDIQGMIKHLESQGQSITFTKLRQFYDHPRFVSTMAQLVQDSYAKLPDELRDEARLVFTAHSIPLSADNAAGTPEDGSLYSTQVKEASALIAEAVGVSDFDVVWQSRSGSPHTPWLEPDIVDHAVELNEKGQKALVVCPVGFISDHMEVIWDLDSELMEEAEKRNMVVERVATVGPTDEFAALVVDLIEEAELKRVIERLGKLPARGSSVNGAPCGDGCCGTAKHKTARVNPNARSAAPAAN	27300 M⁻¹ s⁻¹
CpfC (coproporphyrin ferrochelatase) (Corynebacterium glutamicum ATCC 13032) (protein, heterologously expressed in E. coli BL21, purified) MNERTSDAFDALLVLSFGGPEGHEEVRPFLENVTHGRGIPPERLDEVAVHYHHFGGISPINALNREIIANVEKELASRDHKLPVYFGNRNWKPFDNEAAEQMADDGVKNALVLATSAWGGYSGCRQYQEDIQGMIKHLESQGQSITFTKLRQFYDHPRFVSTMAQLVQDSYAKLPDELRDEARLVFTAHSIPLTADNAAGTPEDGSLYSTQVKEASALIAEAVGVSDFDVVWQSRSGSPHTPWLEPDIVDHAVELNEKGQKALVVCPVGFISDHMEVIWDLDSELMEEAEKRNMVVERVATVGPTDEFAALVVDLIEEAELKRVIERLGKLPARGSSVNGAPCGDGCCGTAKHKTARVNPNARSAAPAAN	17400 M⁻¹ s⁻¹

// CpfC (coproporphyrin ferrochelatase) (Corynebacterium glutamicum ATCC 13032; E100D/E31V) (protein, heterologously expressed in E. coli BL21, purified) MNERTSDAFDALLVLSFGGPEGHEEVRPFLVNVTHGRGIPPERLDEVAVHYHHFGGISPINALNREIIANVEKELASRDHKLPVYFGNRNWKPFDNEAADQMADDGVKNALVLATSAWGGYSGCRQYQEDIQGMIKHLESQGQSITFTKLRQFYDHPRFVSTMAQLVQDSYAKLPDELRDEARLVFTAHSIPLTADNAAGTPEDGSLYSTQVKEASALIAEAVGVSDFDVVWQSRSGSPHTPWLEPDIVDHAVELNEKGQKALVVCPVGFISDHMEVIWDLDSELMEEAEKRNMVVERVATVGPTDEFAALVVDLIEEAELKRVIERLGKLPARGSSVNGAPCGDGCCGTAKHKTARVNPNARSAAPAAN : kcat/Km value = 37000 M⁻¹ s⁻¹

Just for reference, paper PMC10465345 is where these values come from.
